biological target: S. cerevisiae Pma1 (Saccharomyces cerevisiae, UniProt P05030); assay: ATP hydrolysis assay, S. cerevisiae plasma membranes containing Pma1; type: biochemical; set-up: containing the full-length cDNA of the S. cerevisiae plasma membrane H^+-ATPase isoform PMA1; made in house; host or cells: S. cerevisiae RS72 (PMA1 cDNA under PMA1 promoter); also wild-type S. cerevisiae ATCC 9763; settings: Table 2; pH 7, n = 2; read-out: IC50 for ATP hydrolysis, S. cerevisiae Pma1
Sequence (P05030 whole entry, canonical isoform): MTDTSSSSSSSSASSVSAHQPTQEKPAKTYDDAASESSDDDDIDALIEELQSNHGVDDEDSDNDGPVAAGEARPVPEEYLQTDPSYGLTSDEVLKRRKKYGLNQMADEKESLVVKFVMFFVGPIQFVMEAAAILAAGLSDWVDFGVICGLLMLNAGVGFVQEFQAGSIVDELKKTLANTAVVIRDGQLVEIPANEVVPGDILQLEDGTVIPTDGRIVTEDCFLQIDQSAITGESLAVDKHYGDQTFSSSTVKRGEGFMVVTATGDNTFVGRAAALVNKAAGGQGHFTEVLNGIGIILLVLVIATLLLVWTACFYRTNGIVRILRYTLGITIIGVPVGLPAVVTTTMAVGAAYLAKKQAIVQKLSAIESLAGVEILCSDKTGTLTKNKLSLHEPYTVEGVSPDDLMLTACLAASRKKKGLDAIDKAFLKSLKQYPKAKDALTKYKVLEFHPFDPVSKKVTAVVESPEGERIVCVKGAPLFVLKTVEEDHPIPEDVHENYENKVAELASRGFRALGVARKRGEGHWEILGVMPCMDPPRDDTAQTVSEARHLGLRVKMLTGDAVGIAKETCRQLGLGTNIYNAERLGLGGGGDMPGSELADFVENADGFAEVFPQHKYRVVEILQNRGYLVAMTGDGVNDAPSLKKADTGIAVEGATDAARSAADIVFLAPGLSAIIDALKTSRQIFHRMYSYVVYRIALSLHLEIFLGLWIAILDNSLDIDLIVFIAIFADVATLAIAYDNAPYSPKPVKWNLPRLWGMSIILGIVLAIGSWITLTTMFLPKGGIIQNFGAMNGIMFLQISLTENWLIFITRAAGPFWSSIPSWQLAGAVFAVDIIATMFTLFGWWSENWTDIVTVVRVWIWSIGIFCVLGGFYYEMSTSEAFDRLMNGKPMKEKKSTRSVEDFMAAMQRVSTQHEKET
Residues, ends and D or L forms follow the SMILES beside them.
Entries and their measured IC50 follow.

compound	IC50 / µM
CCN(CC)CCCNc1nc(SC)nc2c1sc1nc(-c3ccccc3)c3c(c12)CCC3	7.3
CCc1nc2sc3c(NCCCN(C)C)ncnc3c2c2c1CCCC2	107
CCCCc1nc2sc3c(NCCCN(C)C)ncnc3c2c2c1CCCC2	13.7
N=C(N)NCCC[C@@H](N)C(=O)N[C@H](CCCNC(=N)N)C(=O)N[C@H](CCCNC(=N)N)C(=O)N[C@H](Cc1ccccc1)C(=O)N[C@H](Cc1c[nH]c2ccccc12)C(=O)N[C@H](Cc1c[nH]c2ccccc12)C(=O)N[C@H](Cc1ccccc1)C(=O)N[C@H](CCCNC(=N)N)C(=O)N[C@H](CCCNC(=N)N)C(=O)N[C@H](CCCNC(=N)N)C(N)=O [BM2, reference compound] (HELM PEPTIDE1{[dR].[dR].[dR].[dF].[dW].[dW].[dF].[dR].[dR].[dR].[am]}$$$$V2.0)	1.2
CCCCc1nc2sc3c(NCCCN(C)C)nc(SC)nc3c2c2c1CCC2	5.9
CN(C)CCCNc1ncnc2c1sc1nc(-c3ccccc3)c3c(c12)CCC3	18.5
[O]=[V]([O-])([O-])[O-] [Vanadate, reference compound]	0.25
CN(C)CCCNc1ncnc2c1sc1nc(N3CCCCC3)c3c(c12)CCCC3	7.8

====

molecular target: C. albicans Pma1 (Candida albicans); construct: endogenous in cells; assay: ATP hydrolysis assay, C. albicans Pma1; assay type: biochemical; settings: IC50 for ATP hydrolysis, C. albicans Pma1, Table 2; pH 7, n = 2
Sequence (P28877 whole entry): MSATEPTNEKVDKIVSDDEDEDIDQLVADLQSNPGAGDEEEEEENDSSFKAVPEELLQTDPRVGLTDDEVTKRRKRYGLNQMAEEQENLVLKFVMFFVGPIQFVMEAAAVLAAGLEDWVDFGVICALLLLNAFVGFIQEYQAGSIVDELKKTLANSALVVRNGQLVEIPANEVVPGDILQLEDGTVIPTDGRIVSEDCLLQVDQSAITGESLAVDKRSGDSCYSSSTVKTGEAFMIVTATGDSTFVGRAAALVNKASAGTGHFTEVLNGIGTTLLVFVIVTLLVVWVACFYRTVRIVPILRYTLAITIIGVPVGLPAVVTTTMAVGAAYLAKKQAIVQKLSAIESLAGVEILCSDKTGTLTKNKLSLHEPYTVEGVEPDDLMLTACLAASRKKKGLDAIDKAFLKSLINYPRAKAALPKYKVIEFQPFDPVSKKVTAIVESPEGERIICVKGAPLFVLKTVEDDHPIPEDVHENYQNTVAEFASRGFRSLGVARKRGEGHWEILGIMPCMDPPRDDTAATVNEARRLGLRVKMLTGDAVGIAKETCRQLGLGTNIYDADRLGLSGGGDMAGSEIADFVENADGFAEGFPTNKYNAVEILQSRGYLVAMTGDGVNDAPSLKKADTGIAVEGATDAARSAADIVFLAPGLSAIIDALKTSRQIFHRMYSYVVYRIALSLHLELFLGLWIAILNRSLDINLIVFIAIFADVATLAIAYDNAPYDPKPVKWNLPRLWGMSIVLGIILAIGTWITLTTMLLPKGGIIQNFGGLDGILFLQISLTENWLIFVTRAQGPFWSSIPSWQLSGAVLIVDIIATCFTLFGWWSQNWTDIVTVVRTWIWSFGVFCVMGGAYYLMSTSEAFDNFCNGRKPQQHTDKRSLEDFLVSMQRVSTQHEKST
assay endpoint: IC50 (nM)

In [3]: df
Out[3]:
                                   compound                  experimental_system  measured_result
0  O=c1c2ccccc2[se]n1-c1ccccc1 [Ebselen, reference compound]  C. albicans Pma1 (Candida albicans)              510

====

Molecular target: Ca^2+-ATPase (SERCA1a) (Oryctolagus cuniculus, UniProt P04191)
Sequence (P04191 1-994 isoform P04191-2): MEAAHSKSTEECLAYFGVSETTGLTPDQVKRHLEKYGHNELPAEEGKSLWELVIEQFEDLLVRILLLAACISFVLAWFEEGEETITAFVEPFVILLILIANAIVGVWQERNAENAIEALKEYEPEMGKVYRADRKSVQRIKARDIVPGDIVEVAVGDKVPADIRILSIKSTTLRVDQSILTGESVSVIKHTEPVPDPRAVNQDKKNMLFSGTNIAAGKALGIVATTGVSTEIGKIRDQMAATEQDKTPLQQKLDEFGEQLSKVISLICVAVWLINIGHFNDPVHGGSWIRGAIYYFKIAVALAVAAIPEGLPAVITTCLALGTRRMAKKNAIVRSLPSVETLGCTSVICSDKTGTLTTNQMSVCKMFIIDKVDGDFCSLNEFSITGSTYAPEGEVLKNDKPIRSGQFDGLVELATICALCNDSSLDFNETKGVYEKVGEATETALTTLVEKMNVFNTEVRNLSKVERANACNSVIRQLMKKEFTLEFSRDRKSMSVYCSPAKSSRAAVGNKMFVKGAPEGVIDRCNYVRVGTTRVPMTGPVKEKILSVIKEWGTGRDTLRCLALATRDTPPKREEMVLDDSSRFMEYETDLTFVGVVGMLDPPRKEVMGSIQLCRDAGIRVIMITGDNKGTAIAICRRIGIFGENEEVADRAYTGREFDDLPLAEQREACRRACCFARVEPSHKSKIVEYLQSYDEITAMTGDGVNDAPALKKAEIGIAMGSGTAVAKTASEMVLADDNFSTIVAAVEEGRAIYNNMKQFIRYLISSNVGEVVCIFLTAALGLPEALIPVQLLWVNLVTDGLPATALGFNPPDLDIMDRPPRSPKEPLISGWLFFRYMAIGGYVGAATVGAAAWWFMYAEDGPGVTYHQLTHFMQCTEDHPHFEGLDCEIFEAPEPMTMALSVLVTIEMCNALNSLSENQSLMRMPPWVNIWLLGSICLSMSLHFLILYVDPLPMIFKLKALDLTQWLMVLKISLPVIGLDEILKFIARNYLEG
Test: ATP hydrolysis assay, SERCA
Assay type: biochemical, rabbit
Conditions: Table 2; pH 7, n = 2; rabbit SERCA1a; read-out: IC50 for ATP hydrolysis, SERCA
Description: Rabbit sarcoplasmic reticulum membranes containing sarcoplasmic endoplasmic reticulum Ca^2+-ATPase (SERCA) were kindly provided by Claus E. Olesen and Jesper V. Møller, Aarhus University, and prepared as described in reference. Porcine kidney Na^+,K^+-ATPase was kindly provided by Natalya Fedosova, Aarhus University, and prepared as described in reference. The protein activity levels were determined by measuring the amount of free phosphate produced from the ATP hydrolysis reaction. […]
pIC50: −log10 of the molar value.
Entries and their measured pIC50 follow.
assay endpoint: pIC50

In [3]: df
Out[3]:
                                   compound  measured_result
0  O=c1c2ccccc2[se]n1-c1ccccc1 [Ebselen, reference compound]             6.92
1  CCCCc1nc2sc3c(NCCCN(C)C)nc(SC)nc3c2c2c1CCC2 [Compound 15]             5.35
2  CCN(CC)CCCNc1nc(SC)nc2c1sc1nc(-c3ccccc3)c3c(c12)CCC3 [Compound 19]             5.36
3  [O]=[V]([O-])([O-])[O-] [Vanadate, reference compound]             4.98
